# Tested on: OVCAR-3
# assay.comment: NCI tumour cell line growth inhibition, 48 h
The source made the active and inactive calls. No stated cut-off is given here; in the data, active = GI50 up to about 1.1 µM and inactive = higher.
Response enum: true (active), false (inactive)

Look over these answered cases.
Call for entry COC(=O)C1(C(=O)OC)CC(=O)c2c(OC(=O)c3cccc(OC)c3C#N)ccc(OC(=O)c3cccc(OC)c3C#N)c2C1 :
false

Call for entry COc1ccc2nc3cc(Cl)ccc3c(NCCCCCC(=O)NC(COc3cnc4c(ccc5cccnc54)c3)COc3cnc4c(ccc5cccnc54)c3)c2c1 :
false

More entries:
Call for entry CCOC(=O)C(C)c1nc2ccc(C(F)(F)F)cc2[nH]c1=O (stereo unspecified) :
false

Call for entry Cn1c(-c2cccs2)cc(-c2cccs2)c1-c1ccco1 :
false

Source listed as ChEMBL document CHEMBL1201862.
